experiment: log P by reversed-phase HPLC analogously to OECD Guideline 117; assay type: physicochemical; conditions: pH 7.8
observation.type: logP (neutral)

| sample.smiles | observation.type | test.value |
| --- | --- | --- |
| Cc1ccc(NC(=O)C=C(N)C(F)(F)F)cc1SCC(F)(F)F | logP (neutral) | 3.49 |
| O=C(C=C(O)C(F)(F)F)Nc1cc(SCC(F)(F)F)c(Cl)cc1F | logP (neutral) | 1.45 |
| Cc1cc(C)c(SCC(F)(F)F)cc1NC(=O)C=C(N)C(C)(F)F | logP (neutral) | 3.40 |
| Cc1cc(C)c(SCC(F)(F)F)cc1NC(=O)C=C(O)C(F)(F)C(F)(F)F | logP (neutral) | 1.63 |
| Cc1cc(F)c(NC(=O)C=C(N)C(F)F)cc1SCC(F)(F)F | logP (neutral) | 3.21 |

Give logP (neutral) for each of the items listed below.
1. NC(=CC(=O)Nc1cc(SCC(F)(F)F)c(Br)cc1F)C(F)(F)F
2. Cc1cc(Cl)c(NC(=O)C=C(O)C(F)(F)F)cc1SCC(F)(F)F
3. Cc1cc(C)c(SCC(F)(F)F)cc1NC(=O)C=C(N)C(F)F

1: 3.78; 2: 1.44; 3: 3.15

Give reported logP (neutral) value for NC(=CC(=O)Nc1cc(SCC(F)(F)F)c(Cl)cc1Cl)C(F)(F)F
4.13

Data provenance is patent US10039282B2.
